# reported ELISA binding mIL-12RB2/control; entries follow
# EXPERIMENTAL_SYSTEM: T1, biotinylated recombinant mouse IL-12Rβ2 (mouse, UniProt P97378 24-637, random biotinylated)
# T1 construct: Recombinant protein produced in-house, biotinylated; also called mIL-12RB2; mouse IL-12RB2
# T1 sequence: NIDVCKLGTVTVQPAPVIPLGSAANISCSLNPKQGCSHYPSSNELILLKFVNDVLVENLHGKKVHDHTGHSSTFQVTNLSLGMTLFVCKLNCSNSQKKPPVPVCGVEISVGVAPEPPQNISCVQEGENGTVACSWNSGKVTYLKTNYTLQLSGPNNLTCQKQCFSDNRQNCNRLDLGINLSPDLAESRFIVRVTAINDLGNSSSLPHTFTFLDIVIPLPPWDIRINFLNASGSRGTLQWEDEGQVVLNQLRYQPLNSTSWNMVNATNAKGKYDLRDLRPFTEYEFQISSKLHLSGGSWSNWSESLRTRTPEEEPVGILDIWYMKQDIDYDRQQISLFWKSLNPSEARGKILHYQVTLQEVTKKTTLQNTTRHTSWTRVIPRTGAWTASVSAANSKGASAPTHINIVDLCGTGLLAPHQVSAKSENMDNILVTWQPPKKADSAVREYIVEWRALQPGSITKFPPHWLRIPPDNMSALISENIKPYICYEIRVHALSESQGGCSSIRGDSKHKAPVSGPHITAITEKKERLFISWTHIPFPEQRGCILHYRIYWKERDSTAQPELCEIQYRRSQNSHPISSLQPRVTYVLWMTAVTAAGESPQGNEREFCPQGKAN
# ASSAY: ELISA, periplasmic extract on biotinylated mIL-12Rβ2, signal over control wells
Return type: number; implicit unit ratio.

1) anti-IL-12Rβ2 VHH clone 20467 (VHH, not shown: small tags and cut ends, tested as periplasmic extract; also called 2CAM3) VHH: QVQLQESGGGLVQAGGSLRLSCAPSGRTFSTLAMAWFRQAPGKEREVVATISWSGGRTYYADSVKGRFTISRDNAKNTAYLQMNSLRPDDTAVYYCAARGSDYGSYDYWGQGTQVTVSS :: 14.2

We now examine a further binder.
**Q:** Give the measured ELISA binding mIL-12RB2/control for anti-IL-12Rβ2 VHH clone 20547 (VHH, not shown: small tags and cut ends, tested as periplasmic extract; also called 3CAMS47) VHH: QVQLQESGGGLVQAGGSLRLSCAASGRTFSSYGMGWFRQAPGKERDFVAAISRGARNADYADSVKGRFTISRDNAKNTAYLQMNSLNPEDTAVYFCAAAYTYSGSHYVTARSSDYAYWGQGTQVTVSS
**A:** 5.12

Data origin: patent US20260209362A1
